Molecular target: CDK16 (human)
Experiment: KINOMEscan competition binding
Details: compound 10.0 µM
Listed here: items and their measured kinase still bound, per cent of control.
I only need the number, in %, no unit after it.

Completed entries (count: 2):
STRUCTURE NOTATION | QUANTITY UNIT | NUMERIC RESULT
CC[C@@H]1C(=O)N(C)c2cnc(Nc3ccc(C(=O)NC4CCN(C)CC4)cc3OC)nc2N1C1CCCC1 | % | 100
OCCCNc1cc(-c2ccnc(Nc3cccc(Cl)c3)n2)ccn1 | % | 1.9

In the following, a different compound is considered.
Request: I'd like to know its kinase still bound, per cent of control. The compound in question is COc1cc(N2CCN(C)CC2)ccc1Nc1nc(N)c(C(=O)c2c(Cl)cccc2Cl)s1
Result: 62

----------
Listed here: items and their measured kinase still bound, per cent of control.
Target: CDK16 (human) (UniProt Q00536)
Sequence (Q00536 whole entry, looked up): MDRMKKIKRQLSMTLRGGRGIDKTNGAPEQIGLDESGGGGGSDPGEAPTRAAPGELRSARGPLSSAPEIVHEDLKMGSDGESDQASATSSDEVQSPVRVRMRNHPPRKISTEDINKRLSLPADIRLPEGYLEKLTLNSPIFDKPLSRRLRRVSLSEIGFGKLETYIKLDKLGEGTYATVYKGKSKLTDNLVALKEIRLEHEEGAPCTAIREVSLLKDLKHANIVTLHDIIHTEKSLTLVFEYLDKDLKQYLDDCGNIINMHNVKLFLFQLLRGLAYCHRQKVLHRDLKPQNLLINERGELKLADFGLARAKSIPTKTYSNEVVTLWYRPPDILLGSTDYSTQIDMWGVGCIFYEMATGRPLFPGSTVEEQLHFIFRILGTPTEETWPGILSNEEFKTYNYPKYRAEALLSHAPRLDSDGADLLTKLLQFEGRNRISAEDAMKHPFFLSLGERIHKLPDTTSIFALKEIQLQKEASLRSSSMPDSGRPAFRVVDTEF
Test: KINOMEscan competition binding
Details: compound 10.0 µM
Answer format: number, then unit.

Completed entries (count: 2):
STRUCTURE NOTATION | TESTED ON | RESULT
C=CC(=O)Nc1cccc(Oc2nc(Nc3ccc(N4CCN(C)CC4)cc3OC)ncc2Cl)c1 | CDK16 (human) (UniProt Q00536) | 100%
Cc1ccc(C(=O)Nc2cccc(C(F)(F)F)c2)cc1Nc1cncc(C(N)=O)c1 | CDK16 (human) (UniProt Q00536) | 100%

Request: I'd like to know its kinase still bound, per cent of control. The compound in question is O=C1Nc2ccc(I)cc2/C1=C/c1cc(Br)c(O)c(Br)c1
Result: 89%

----------
Target: MAP4K3 (human)
Assay: KINOMEscan competition binding
Conditions: compound 10.0 µM
API: label(entry) gives 1.0 if the entry's kinase still bound, per cent of control is strictly smaller than 80%; on equality or larger values it gives 0.0.

Below are worked cases with known answers.
STRUCTURE NOTATION | CLASS ASSIGNMENT
CN(C)C/C=C/C(=O)Nc1cccc(Nc2ncc3c(n2)N(C)c2ccccc2C(=O)N3C)c1 | 1.0
C=CC(=O)Nc1cccc(Nc2nc(N[C@H]3CC[C@H](N(C)C)CC3)nc3c2ncn3C(C)C)c1 | 1.0
Cc1cc([C@@H](C)Nc2ccccc2C(=O)O)c2nc(N3CCOCC3)cc(=O)n2c1 | 0.0
OCCCNc1cc(-c2ccnc(Nc3cccc(Cl)c3)n2)ccn1 | 0.0
COc1cc(C(=O)NC2CCN(C)CC2)ccc1Nc1ncc2c(n1)N(C1CCCC1)CCC(=O)N2C(C)C | 0.0

Request: Hi there! Is kinase still bound, per cent of control for CC[C@@H]1C(=O)N(C)c2cnc(Nc3ccc(C(=O)NC4CCN(C)CC4)cc3OC)nc2N1C1CCCC1 below 80%, do you know?
Result: 0.0

Request: Hi there! Is kinase still bound, per cent of control for CCCS(=O)(=O)Nc1ccc(F)c(C(=O)c2c[nH]c3ncc(-c4ccc(Cl)cc4)cc23)c1F below 80%, do you know?
Result: 1.0

Request: Hi there! Is kinase still bound, per cent of control for O=C(NC1CC1)c1cccc(-c2ccc3c(NC(=O)C4CC4)n[nH]c3c2)c1 below 80%, do you know?
Result: 1.0

----------
Target: DMPK (human) (UniProt Q09013)
Sequence (Q09013 whole entry, looked up): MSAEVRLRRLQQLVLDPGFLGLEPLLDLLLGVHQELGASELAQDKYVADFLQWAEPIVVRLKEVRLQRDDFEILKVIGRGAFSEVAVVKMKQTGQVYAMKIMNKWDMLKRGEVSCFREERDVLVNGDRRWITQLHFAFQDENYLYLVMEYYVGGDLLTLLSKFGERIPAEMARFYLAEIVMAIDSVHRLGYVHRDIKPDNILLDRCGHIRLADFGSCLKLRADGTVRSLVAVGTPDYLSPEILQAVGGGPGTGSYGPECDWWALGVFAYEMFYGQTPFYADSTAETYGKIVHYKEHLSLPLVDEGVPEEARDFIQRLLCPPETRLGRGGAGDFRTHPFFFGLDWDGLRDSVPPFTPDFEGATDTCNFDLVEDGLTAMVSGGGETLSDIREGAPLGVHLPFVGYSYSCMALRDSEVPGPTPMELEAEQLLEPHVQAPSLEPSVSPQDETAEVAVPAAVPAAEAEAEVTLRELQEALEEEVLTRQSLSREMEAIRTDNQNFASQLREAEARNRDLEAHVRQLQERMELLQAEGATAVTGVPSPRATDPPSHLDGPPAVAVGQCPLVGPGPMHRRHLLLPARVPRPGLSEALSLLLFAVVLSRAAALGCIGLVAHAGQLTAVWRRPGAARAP
Experiment: KINOMEscan competition binding
Details: compound 10.0 µM
OBSERVATION TYPE: kinase still bound, per cent of control (%)
I only need the number, in %, no unit after it.

Completed entries (count: 4):
STRUCTURE NOTATION | TESTED ON | QUANTITY UNIT | kinase still bound, per cent of control
COc1cc(N2CCN(C)CC2)ccc1Nc1nc(N)c(C(=O)c2c(Cl)cccc2Cl)s1 | DMPK (human) (UniProt Q09013) | % | 50
Cc1ccc2nc(NCCN)c3ncc(C)n3c2c1 | DMPK (human) (UniProt Q09013) | % | 100
Cn1c(=O)n(-c2ccc(C(C)(C)C#N)cc2)c2c3cc(-c4cnc5ccccc5c4)ccc3ncc21 | DMPK (human) (UniProt Q09013) | % | 100
Nc1ccc(-c2ccc3ncc4ccc(=O)n(-c5cccc(C(F)(F)F)c5)c4c3c2)cn1 | DMPK (human) (UniProt Q09013) | % | 95

Request: Lab request: please report kinase still bound, per cent of control under test system DMPK (human) (UniProt Q09013) for CN(C)C/C=C/C(=O)Nc1cccc(Nc2ncc3c(n2)N(C)c2ccccc2C(=O)N3C)c1
Result: 32

----------
Molecular target: PIK3CG (human)
Experiment: KINOMEscan competition binding
Details: compound 10.0 µM
API: label(entry) gives TRUE if the entry's kinase still bound, per cent of control is strictly smaller than 90%; on equality or larger values it gives FALSE.

COMPOUND | CLASS ASSIGNMENT
COc1cc(C(=O)NC2CCN(C)CC2)ccc1Nc1ncc2c(n1)N(C1CCCC1)C(C)CC(=O)N2C (stereo not drawn) | FALSE
C=CC(=O)Nc1cccc(Nc2nc(N[C@H]3CC[C@H](N(C)C)CC3)nc3c2ncn3C(C)C)c1 | FALSE
OCCCNc1cc(-c2ccnc(Nc3cccc(Cl)c3)n2)ccn1 | FALSE
CCN1CCN(Cc2ccc(Nc3ncc4c(n3)N(C)c3ccccc3C(=O)N4C)cc2C(F)(F)F)CC1 | TRUE
C[C@@H](Oc1cc(-n2cnc3ccc(CN4CCN(C)CC4)cc32)sc1C(N)=O)c1ccccc1C(F)(F)F | TRUE
COc1cc(C(=O)NC2CCN(C)CC2)ccc1Nc1ncc2c(n1)N(C1CCCC1)CCC(=O)N2C(C)C | FALSE

Request: Hi there! Is kinase still bound, per cent of control for Cn1c(=O)n(-c2ccc(C(C)(C)C#N)cc2)c2c3cc(-c4cnc5ccccc5c4)ccc3ncc21 below 90%, do you know?
Result: TRUE

Request: Hi there! Is kinase still bound, per cent of control for Cc1ccc(NC(=O)c2cccc(C(C)(C)C#N)c2)cc1Nc1ccc2ncn(C)c(=O)c2c1 below 90%, do you know?
Result: FALSE

Request: Hi there! Is kinase still bound, per cent of control for N#Cc1c(NC(=O)c2cccc3ccccc23)sc2c1CCCC2 below 90%, do you know?
Result: FALSE

Request: Hi there! Is kinase still bound, per cent of control for O=C(O)c1ccc(Nc2ncc3c(n2)-c2ccc(Cl)cc2C(c2c(F)cccc2F)=NC3)cc1 below 90%, do you know?
Result: FALSE

Request: Hi there! Is kinase still bound, per cent of control for O=C1Nc2ccc(I)cc2/C1=C/c1cc(Br)c(O)c(Br)c1 below 90%, do you know?
Result: TRUE

Request: Hi there! Is kinase still bound, per cent of control for COc1cc(N2CCN(C)CC2)ccc1Nc1nc(N)c(C(=O)c2c(Cl)cccc2Cl)s1 below 90%, do you know?
Result: TRUE

Request: Hi there! Is kinase still bound, per cent of control for C=CC(=O)Nc1cccc(Oc2nc(Nc3ccc(N4CCN(C)CC4)cc3OC)ncc2Cl)c1 below 90%, do you know?
Result: FALSE

Request: Hi there! Is kinase still bound, per cent of control for Cc1ccc(C(=O)Nc2cccc(C(F)(F)F)c2)cc1Nc1cncc(C(N)=O)c1 below 90%, do you know?
Result: FALSE

Request: Hi there! Is kinase still bound, per cent of control for C=CC(=O)Nc1cc(NC(=O)c2ccc(C)c(NC(=O)c3ccno3)c2)cc(C(F)(F)F)c1 below 90%, do you know?
Result: TRUE

----------
Test system: PIK3CA (human), P42336 [I800L]
Sequence (P42336 whole entry I800L, looked up): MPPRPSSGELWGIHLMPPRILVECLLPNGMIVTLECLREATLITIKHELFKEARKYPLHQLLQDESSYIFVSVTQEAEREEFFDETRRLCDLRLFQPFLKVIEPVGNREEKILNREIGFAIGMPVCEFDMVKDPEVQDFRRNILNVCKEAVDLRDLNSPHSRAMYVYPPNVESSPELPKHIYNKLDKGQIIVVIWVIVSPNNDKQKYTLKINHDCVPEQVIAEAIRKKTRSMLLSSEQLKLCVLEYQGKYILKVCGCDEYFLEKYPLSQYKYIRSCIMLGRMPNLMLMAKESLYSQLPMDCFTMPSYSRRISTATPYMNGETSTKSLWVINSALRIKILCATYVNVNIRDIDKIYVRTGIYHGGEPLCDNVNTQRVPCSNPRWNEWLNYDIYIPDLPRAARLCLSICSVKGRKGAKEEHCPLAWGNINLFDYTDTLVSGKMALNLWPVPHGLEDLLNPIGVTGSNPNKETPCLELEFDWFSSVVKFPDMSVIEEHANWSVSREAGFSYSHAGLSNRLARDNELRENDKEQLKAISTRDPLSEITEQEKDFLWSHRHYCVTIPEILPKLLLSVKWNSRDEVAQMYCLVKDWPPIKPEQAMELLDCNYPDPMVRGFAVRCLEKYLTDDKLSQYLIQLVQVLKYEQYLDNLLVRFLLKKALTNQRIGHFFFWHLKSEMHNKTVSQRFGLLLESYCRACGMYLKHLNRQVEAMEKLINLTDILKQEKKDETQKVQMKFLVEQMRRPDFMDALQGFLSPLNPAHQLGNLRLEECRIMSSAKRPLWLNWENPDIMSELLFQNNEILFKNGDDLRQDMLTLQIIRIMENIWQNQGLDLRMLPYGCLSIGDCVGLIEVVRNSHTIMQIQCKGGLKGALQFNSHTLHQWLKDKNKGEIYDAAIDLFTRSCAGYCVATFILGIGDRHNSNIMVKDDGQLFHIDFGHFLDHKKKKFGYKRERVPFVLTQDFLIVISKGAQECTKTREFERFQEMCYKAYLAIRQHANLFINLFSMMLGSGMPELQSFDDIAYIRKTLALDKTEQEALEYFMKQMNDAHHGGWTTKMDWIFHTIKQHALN
Assay: KINOMEscan competition binding
Conditions: compound 10.0 µM
OBSERVATION TYPE: kinase still bound, per cent of control (%)
I only need the number, in %, no unit after it.

STRUCTURE NOTATION | kinase still bound, per cent of control, %
O=C(O)c1ccc(Nc2ncc3c(n2)-c2ccc(Cl)cc2C(c2c(F)cccc2F)=NC3)cc1 | 84
COc1cc(C(=O)N2CCC(N3CCN(C)CC3)CC2)ccc1Nc1ncc2c(n1)N(C)c1ccccc1C(=O)N2C | 38

In the following, a different compound is considered.
Request: Lab request: please report kinase still bound, per cent of control under test system PIK3CA (human), P42336 [I800L] for O=C(NC1CC1)c1cccc(-c2ccc3c(NC(=O)C4CC4)n[nH]c3c2)c1
Result: 100

----------
Target: HCK (human)
Assay: KINOMEscan competition binding
Conditions: compound 10.0 µM
Listed here: items and their measured kinase still bound, per cent of control.
Answer format: number, then unit.

Completed entries (count: 3):
STRUCTURE NOTATION | TESTED ON | kinase still bound, per cent of control
CCC(=O)N1CCN(c2ccc(-n3c(=O)ccc4cnc5ccc(-c6cnc7ccccc7c6)cc5c43)cc2C(F)(F)F)CC1 | HCK (human) | 77%
CCOc1cc2ncc(C#N)c(Nc3ccc(OCc4ccccn4)c(Cl)c3)c2cc1NC(=O)/C=C/CN(C)C | HCK (human) | 35%
COc1cc(C(=O)NC2CCN(C)CC2)ccc1Nc1ncc2c(n1)N(C1CCCC1)CCC(=O)N2C(C)C | HCK (human) | 100%

In the following, a different compound is considered.
Request: I'd like to know its kinase still bound, per cent of control. The compound in question is Cc1ccc2nc(NCCN)c3ncc(C)n3c2c1
Result: 100%
